Tested on: SK-MEL-28 melanoma
Assay: NCI tumour cell line growth inhibition, 48 h
TGI of 40 µM or higher: MET. Under 40 µM: NOT MET.

Molecule | Measurement Target | Label Value
O=C(O)CC1NC(/C(=C/c2ccccc2)NC(=O)c2ccccc2)OC1=O (stereo unspecified) | SK-MEL-28 melanoma | MET
COc1ccc2c(c1)CCCC(Br)C2=O (stereo unspecified) | SK-MEL-28 melanoma | NOT MET
CC(=O)c1cccc(NC(=O)C(=O)NNc2n[nH]c(=S)n2N)c1 | SK-MEL-28 melanoma | NOT MET
CC1(C)CC(=O)c2[nH]c3ccccc3c2CC(=O)NCCc2cn1cn2 | SK-MEL-28 melanoma | MET
CC(=O)N(C)c1ccc(Nc2cc(C)[nH]c3ccc4ncnc4c23)cc1 | SK-MEL-28 melanoma | NOT MET
CNc1ccc(C(=O)CC(O)CCC(C)C2OC(=O)CC(O)CC(=O)CC(O)CC(O)CC(O)CC(O)CC3(O)CC(O)C(C(=O)NCCN(C)C)C(CC(OC4OC(C)C(O)C(NC(=O)CN5CCN(C)CC5)C4O)/C=C/C=C/C=C/C=C\C=C/C=C/C=C/C2C)O3)cc1 (stereo unspecified) | SK-MEL-28 melanoma | MET
N#Cc1nc(Nc2cccc3ccccc23)sc1N | SK-MEL-28 melanoma | MET
Nc1ncnc2c1ccn2C/C=C\CO | SK-MEL-28 melanoma | MET
Cc1ccc(NC(=O)C(=O)C(C(=O)c2ccc3ccccc3c2)C2OC(=O)c3ccccc32)cc1C (stereo unspecified) | SK-MEL-28 melanoma | NOT MET
COC(=O)c1ccc(C(=O)NC(Cc2ccc(Oc3cc(CC(NC(=O)c4ccccc4C(=O)OC)C(=O)OC)ccc3OC)cc2)C(=O)OC)cc1 (stereo unspecified) | SK-MEL-28 melanoma | MET
CN(C)CCCNC(=O)c1cc2[nH]c3c(cnc4ccc([N+](=O)[O-])cc43)c(=O)c2n1C | SK-MEL-28 melanoma | NOT MET
CCCCCCCCCCCCOC1C(C(COC2OC(C3COC(C)(C)O3)C3OC(C)(C)OC23)NC(=O)Nc2ccc(C(=O)O)cc2)OC2OC(C)(C)OC21 (stereo unspecified) | SK-MEL-28 melanoma | NOT MET
[Cl][Hg][c]1cc(Br)cc(Br)c1 | SK-MEL-28 melanoma | NOT MET
CC(C)c1ccccc1NC(=O)CCc1n[nH]c(=S)o1 | SK-MEL-28 melanoma | MET
COC(=O)CC(C#N)(OP1(=O)OC(c2ccccc2)C(C)N1C)c1ccccc1 (stereo unspecified) | SK-MEL-28 melanoma | MET
